- tested.target: T1, CRF2R; note: reference of the scale not given here
- T1 sequence (Q13324 whole entry, species assumed, looked up): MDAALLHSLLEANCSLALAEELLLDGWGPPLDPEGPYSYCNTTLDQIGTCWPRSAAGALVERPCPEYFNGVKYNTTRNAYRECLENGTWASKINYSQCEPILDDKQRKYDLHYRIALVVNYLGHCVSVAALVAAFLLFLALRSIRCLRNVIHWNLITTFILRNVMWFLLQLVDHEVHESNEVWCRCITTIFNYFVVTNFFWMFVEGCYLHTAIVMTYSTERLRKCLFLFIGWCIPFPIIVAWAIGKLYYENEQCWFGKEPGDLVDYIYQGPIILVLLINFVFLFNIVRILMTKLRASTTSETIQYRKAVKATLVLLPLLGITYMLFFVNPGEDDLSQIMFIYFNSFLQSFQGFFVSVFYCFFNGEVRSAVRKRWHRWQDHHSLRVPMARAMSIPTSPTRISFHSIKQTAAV
- assay.comment: cell-based or functional assay
Ends that are not written are not given here.
reported.metric: CRF2R Emax % (%)
# number only, unit % dropped from output

// Input: ZGPPISIDLPQYLLRKMIEIEKQEKEKQQAANNALLLATI (C-terminal amide) [SEQ ID NO 227] . Output its CRF2R Emax % only. 95

Entry DNPSLSIDLPLFLLRTLLELEKTQSQRERAEQNARIFARV-NH2 [SEQ ID NO 334] needs its CRF2R Emax % filled in; supply it. 93.5

Consider the binder DNPSLSIDLPLLLLRTLLELEKTQSQRERAEQNAQIFAQV-NH2 [SEQ ID NO 327] . State its measured CRF2R Emax %. 100

Write down CRF2R Emax % measured for item ZGPPISIDLPIYLLRKMIEIEKQEKEKQQAANNALLLATI (C-terminal amide) [SEQ ID NO 237] 93

Supply CRF2R Emax % value. Item: ZGPPISIDVPLQLLRKVIEIEKQEKEKQQAANNARLLARI (C-terminal amide) [SEQ ID NO 381] 99

Return CRF2R Emax % (reported value) for this binder: IVLSLDVPIGLLQILLEQARHAHAHAHAHAQAHILAHV-NH2 [SEQ ID NO 369] 18
